assay: compound effects on hepatocellular carcinoma cell viability – HepG2, calcein-AM fluorescence, 48 h, basal, profiling panel (AID 1164); conditions: higher = more signal; also: test concentration not given here
quantity: z-score
Answer with a number only.

// worked examples, z-score included
{"columns": ["compound", "experimental_result"],
 "data": [
  ["O=C1CSC(c2cccc([N+](=O)[O-])c2)N1c1ccccc1 (stereo not given)", 1.71],
  ["COc1ccc(C(=O)Nc2ccc(CN3C(=O)[C@@]4(O[C@@H](CC(=O)N5Cc6ccccc6C[C@H]5CO)[C@H]([Si](C)(C)c5ccc(OC)cc5)[C@H]4C)c4ccccc43)cc2)cc1", -0.856],
  ["OCCCC1=CC(c2cccs2)N(Cc2cccc(OC(F)(F)F)c2)CC1 (stereo not given)", -1.13],
  ["C=CCC(OC(C)=O)[C@@H]1[C@@H](N(Cc2cc3ccccc3o2)C(=O)Cc2ccc(OC)cc2)c2cc(OCCCO)ccc2N1C(=O)c1ccc(-c2ccccc2)cc1 (stereo not given in full)", 0.228],
  ["C=C[C@H](C)[C@H](OC(=O)Nc1ccc(SC)cc1)c1ccc(O)c2ccccc12", -1.51]
]}

Ask: Quick one: z-score of `CC(C)C[C@@H]1NC(=O)[C@@H]2C[C@H](C(=O)NCCCC[N+](C)(C)C)[C@H](c3cccc(OCCO)c3)N2C1=O` ?
Reply: -0.75

Ask: Quick one: z-score of `O=C1O[C@@H](c2ccccc2)[C@@H](c2ccccc2)N2[C@@H](c3ccc(O)cc3)[C@]3(C(=O)Nc4ccc(C#CC5=CCCCC5)cc43)[C@@H](C(=O)Nc3nc4ccccc4s3)[C@H]12` ?
Reply: 1.46

Ask: Quick one: z-score of `COCCOC(=O)N1C(=O)[C@@]2(c3cc(C#Cc4ccc(OC)cc4)ccc31)[C@H](c1ccc(OCCO)cc1)N1[C@H](c3ccccc3)[C@H](c3ccccc3)OC(=O)[C@H]1[C@@H]2C(N)=O` ?
Reply: -0.792

Ask: Quick one: z-score of `O=C(Nc1cc(Br)ccc1C(=O)NCc1cccc(O)c1)c1ccccc1` ?
Reply: -2.25

Ask: Quick one: z-score of O=C1C2C=CC(C(O)c3ccc(Br)cc3)N(Nc3ccccc3)C2C(=O)N1c1ccccc1 (stereo not given) ?
Reply: -0.5
